Cited source: patent US5968923A

So I've got a bunch of molecules here, and I need their IC50 values.
# Test target: human NK2 receptor (Homo sapiens, UniProt P21452)
# Construct: expressed in transfected cells; host or cells: Chinese hamster ovary (CHO) cells, membranes
# Sequence (P21452 1-398): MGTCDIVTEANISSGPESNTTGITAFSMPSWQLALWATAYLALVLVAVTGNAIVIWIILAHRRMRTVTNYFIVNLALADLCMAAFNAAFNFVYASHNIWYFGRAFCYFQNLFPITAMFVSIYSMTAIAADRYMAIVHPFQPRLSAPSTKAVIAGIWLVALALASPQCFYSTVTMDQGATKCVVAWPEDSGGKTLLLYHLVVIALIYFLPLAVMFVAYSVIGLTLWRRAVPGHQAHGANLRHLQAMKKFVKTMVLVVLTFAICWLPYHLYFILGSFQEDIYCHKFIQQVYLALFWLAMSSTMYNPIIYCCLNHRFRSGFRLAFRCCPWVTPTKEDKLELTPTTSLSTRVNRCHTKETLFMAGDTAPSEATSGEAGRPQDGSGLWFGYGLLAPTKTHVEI
# Procedure details: Competition with [^125 I] NKA for binding to membranes from Chinese hamster ovary cells expressing the cloned human NK2 receptor (Method A)
# Stated conditions: Chinese hamster ovary cell membranes, read-out: METHOD A (pIC50) (converted)
Numbers only, in nM.

>>> print(df.to_string())
                                   molecule  readout_value
0  O=C1CCC(CCN2CC(N3CC[S+]([O-])CC3)C2)(c2ccc(F)c(F)c2)CN1Cc1ccccc1 (centres unmarked)           63.1
1  CS(=O)(=O)N1CCN(C2CN(CCC3(c4ccc(Cl)cc4)CCC(=O)N(CC4CCCCC4)C3)C2)CC1 (centres unmarked)           6.31
2  O=C1CCC(CCN2CC(C(=O)N3CCCCC3)C2)(c2ccc(Cl)c(Cl)c2)CN1Cc1ccccc1 (centres unmarked)              1
3  CC1CCCCC1CN1CC(CCN2CC(N3CCOCC3)C2)(c2ccc(Cl)c(Cl)c2)CCC1=O (centres unmarked)          0.316

Input: Entry CC(c1ccccc1)N1CC(CCN2CC(N3CCOCC3)C2)(c2ccc(Cl)c(Cl)c2)CCC1=O (stereo not drawn) [Example 75 (enantiomeric pair A)] needs its IC50 filled in; supply it.
Output: 5.01

---

Would you kindly list Kb for each of these molecules?
# Test target: NK2 receptor (Oryctolagus cuniculus, UniProt P79218)
# Construct: antagonise the contractile effects of [βAla^8 ]; NKA(4-10) in the rabbit pulmonary artery; from tissue; host or cells: rabbit pulmonary artery
# Sequence (P79218 whole entry): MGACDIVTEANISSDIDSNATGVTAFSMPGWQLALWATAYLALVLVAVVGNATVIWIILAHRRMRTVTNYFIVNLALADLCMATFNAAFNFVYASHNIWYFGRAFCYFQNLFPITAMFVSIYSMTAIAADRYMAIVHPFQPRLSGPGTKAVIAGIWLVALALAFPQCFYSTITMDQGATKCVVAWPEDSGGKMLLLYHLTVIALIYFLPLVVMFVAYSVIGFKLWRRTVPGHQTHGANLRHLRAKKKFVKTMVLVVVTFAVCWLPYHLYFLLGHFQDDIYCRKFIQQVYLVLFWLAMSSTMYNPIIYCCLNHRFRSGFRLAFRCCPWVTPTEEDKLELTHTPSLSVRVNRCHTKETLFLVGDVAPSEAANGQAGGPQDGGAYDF
# Procedure details: Antagonism of the contractile effects of [βAla^8 ] NKA(4-10) in the rabbit pulmonary artery (Method B)
# Type: cell-based
# Stated conditions: agonist [βAla^8 ] NKA(4-10), read-out: METHOD B (pA2) (converted)
One number for each entry, in nM.

Answer for every listed entry: what is its Kb? The entries follow.
1. CS(=O)(=O)N1CCN(C2CN(CCC3(c4ccc(Cl)cc4)CCC(=O)N(CC4CCCCC4)C3)C2)CC1 (centres unmarked)
2. O=C1CCC(CCN2CC(C(=O)N3CCCCC3)C2)(c2ccc(Cl)c(Cl)c2)CN1Cc1ccccc1 (centres unmarked)
3. O=C1CCC(CCN2CC(N3CC[S+]([O-])CC3)C2)(c2ccc(F)c(F)c2)CN1Cc1ccccc1 (centres unmarked)

Output:
1. 2.51
2. 5.01
3. 12.6

For each of the items listed, what is its Kb?
1. CC1CCCCC1CN1CC(CCN2CC(N3CCOCC3)C2)(c2ccc(Cl)c(Cl)c2)CCC1=O (centres unmarked)
2. CC(c1ccccc1)N1CC(CCN2CC(N3CCOCC3)C2)(c2ccc(Cl)c(Cl)c2)CCC1=O (stereo not drawn) [Example 75 (enantiomeric pair A)]

Output:
1: 1.26; 2: 0.794
